tested on: plasma levels of free glycerol; assay: Effect of oral administration on plasma levels of free glycerol in the empty rat; type: in vivo, rat (COBS CD (SD) BR male); conditions: 30 mg/kg oral referred to nicotinic acid, 6 h, empty rat
Value Kind: Percent variations of plasma free glycerol with respect to the controls

Input: Quick check: Percent variations of plasma free glycerol with respect to the controls on plasma levels of free glycerol, item O=C(N[C@H]1C(OC(=O)c2cccnc2)O[C@H](COC(=O)c2cccnc2)[C@@H](OC(=O)c2cccnc2)[C@@H]1OC(=O)c1cccnc1)c1cccnc1 (stereo partly shown) [GLUN, N-nicotinoyl-glucosamine tetranicotinate] ?
Output: -17%

Input: // fetch plasma levels of free glycerol Percent variations of plasma free glycerol with respect to the controls for O=C(OC[C@H](OC(=O)c1cccnc1)[C@@H](OC(=O)c1cccnc1)[C@H](OC(=O)c1cccnc1)[C@@H](COC(=O)c1cccnc1)OC(=O)c1cccnc1)c1cccnc1 [SORBINICATE, D-glucitol hexanicotinate]
Output: -7%

Input: Lab note: need Percent variations of plasma free glycerol with respect to the controls for O=C(O)c1cccnc1 [NICOTINIC ACID, nicotinic acid] on plasma levels of free glycerol, anyone have it?
Output: +15%

Input: // fetch plasma levels of free glycerol Percent variations of plasma free glycerol with respect to the controls for O=C(OCC(COC(=O)c1cccnc1)(COC(=O)c1cccnc1)COC(=O)c1cccnc1)c1cccnc1 [NICERITROLE, pentaerithritol-tetranicotinate]
Output: +11%
